Test system: M. tuberculosis H37Rv growth inhibition with meropenem
test_details: dose response, H37Rv, with and without meropenem (AID 434987);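 further: growth over 7 days at 37 °C before Alamar Blue read on day 9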
condition: M. tuberculosis H37Rv growth inhibition; measured here: IC50 without meropenem
pIC50: −log10 of the molar value.
quantity_kind: pIC50

1. Cc1ccc(/C=N\NC(=O)c2csnn2)cc1	< 4.00
2. Cn1c(/C=C/c2ccc(Br)cc2)c([N+](=O)[O-])c(=O)n(C)c1=O	< 4.00
3. CCSc1nnc(NC(=O)Cn2cnc3ccccc3c2=O)s1	< 4.00
4. CCc1ccc(NC(=S)Nc2ccc3[nH]c(=O)[nH]c3c2)cc1	< 4.00
5. COc1c(NC(C)=O)c2ccccc2c2ccccc12	< 4.00
6. CC(=O)[C@@]1(O)CC[C@H]2[C@@H]3C[C@H](C)C4=CC(=O)CC[C@]4(C)[C@H]3CC[C@@]21C	< 4.00

Looking for the measured pIC50 of O=C(O)c1cc(-c2ccco2)nc2ccc(Br)cc12 , can you help? < 4.00

And what about the compound N#Cc1cc2c(nc1SCC(=O)Nc1sc3c(c1C#N)CCC3)CCCC2 ? < 4.00

And what about the compound CCSc1nnc(NC(=O)C2Cc3ccccc3CN2C(=O)c2ccco2)s1 (configuration not stated) ? < 4.00

And what about the compound Nc1ccc(N=Nc2ccccc2O)c(N)c1 ? 4.47

And what about the compound O=C(c1cnn2c(C(F)(F)F)cc(-c3cccs3)nc12)N1CCN(C(c2ccccc2)c2ccccc2)CC1 ? 4.49

And what about the compound COCCCn1c(=O)/c(=C\c2ccccc2OC(C)C)s/c1=C(/C#N)C(=O)Nc1ccc(C(=O)O)cc1 ? 4.87

And what about the compound CCc1ccc2c(c1)C(c1ccc([N+](=O)[O-])cc1)=NNC(c1ccc(C)cc1)=N2 ? < 4.00

And what about the compound CCc1cc2c(=O)nc3n(c2s1)Cc1ccccc1/C3=C(/O)c1ccc(F)cc1 ? < 4.00

And what about the compound Cc1sc2nc(C(C)(C)C)oc(=O)c2c1C ? < 4.00

And what about the compound Cn1nnnc1Sc1ncnc2scc(-c3cccc(F)c3)c12 ? < 4.00

And what about the compound CNC(=O)Nc1cccc(-c2cc(-c3c(Cl)cccc3Cl)no2)c1 ? < 4.00

And what about the compound NS(=O)(=O)c1ccc(O)c(NC(=O)c2ccc([N+](=O)[O-])o2)c1 ? 4.57

And what about the compound CC1(C)CN=C(Nc2nc3ccccc3s2)S1 ? < 4.00
